Entry source: patent US20240239892A1

Recorded measurements of koff, one per entry
- target or system: T1, PD-1 (analyte of the SPR assay of Example 3) (human, UniProt Q15116 21-167, limits assumed)
- T1 construct: also called human PD-1
- T1 sequence (Q15116 21-167 limits assumed): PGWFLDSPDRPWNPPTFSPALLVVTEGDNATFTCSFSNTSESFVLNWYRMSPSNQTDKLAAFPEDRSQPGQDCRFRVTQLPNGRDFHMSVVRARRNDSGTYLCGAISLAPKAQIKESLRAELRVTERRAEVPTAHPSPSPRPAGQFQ
- test: SPR (Biacore 8K), antibody captured by anti-human Fc, PD-1 as analyte
- Protocol: Anti-human Fc gamma specific antibody (Jackson ImmunoResearch #109-005-098) was immobilized onto the sensor chip using amine coupling method. […] After equilibration, PD-1 was injected for 200 seconds (association phase) followed by the injection of running buffer for 600s (dissociation phase). Responses of reference flow cell (flow cell 1) were subtracted from those of humanized antibodies flow cells during each cycle. […] The process was repeated until all antibodies are analyzed. […]
Express the result in s⁻¹ but write the number alone.

Examples with answers:
binder="Chimeric VH + VL (antibody, human IgG1, kappa, V domains shown, also called Parental mouse VH+VL combined with human Fc; parental antibody) VH: EVKLVESGGGLVKPGGSLKLSCAASGFTFSSYGMSWVRQTPEKRLEWVAIISGGGRDIYYLDSVKGRFTISRDNAKNNLYLQMSSLRSEDTAFYYCSSPIYDAYSFAYWGQGTLVTVSA VL: DIVLVQSPATLSVTPGDSVSLSCRASQTISNNLHWYHQKSHESPRLLIKYASQSISGIPSRFSGSGSGTDFTLSINSVETEDFGMYFCQQSYSWPLTFGAGTNLELKR" unit_tag=s⁻¹ value_measured=0.000163
binder="anti-PD-1 antibody VH7+VL6 (antibody, human IgG1, kappa, V domains shown, also called HC2 + LC2) VH: EVQLVESGGGLVQPGGSLRLSCAASGFTFSSYGMSWVRQAPGKGLEWVAIISGGGRDIYYLDSVKGRFTISRDNSKNNLYLQMNSLRAEDTAVYYCSSPIYDAYSFAYWGQGTLVTVSS VL: EIVLTQSPATLSVSPGERATLSCRASQTISNNLHWYHQKPGQAPRLLIKYASQSISGIPSRFSGSGSGTDFTLTISSLQSEDFAVYFCQQSYSWPLTFGGGTKLEIKR" unit_tag=s⁻¹ value_measured=0.000218
binder="VH6 + VL1 (antibody, human IgG1, kappa, V domains shown, Humanized full-length IgG expressed in HEK293; For SPR it was captured from culture medium through its Fc; also called HC1 + LC1) VH: EVQLVESGGGLVQPGGSLRLSCAASGFTFSSYGMSWVRQAPGKRLEWVAIISGGGRDIYYLDSVKGRFTISRDNSKNTLYLQMNSLRAEDTAVYYCSSPIYDAYSFAYWGQGTLVTVSS VL: EIVMTQSPATLSVSPGERATLSCRASQTISNNLHWYQQKPGQAPRLLIYYASQSISGIPARFSGSGSGTEFTLTISSLQSEDFAVYYCQQSYSWPLTFGGGTKLEIKR" unit_tag=s⁻¹ value_measured=0.000404

Incoming: May I ask what koff has been recorded for VH7 + VL1 (antibody, human IgG1, kappa, V domains shown, Humanized full-length IgG expressed in HEK293; also called HC2 + LC1) VH: EVQLVESGGGLVQPGGSLRLSCAASGFTFSSYGMSWVRQAPGKGLEWVAIISGGGRDIYYLDSVKGRFTISRDNSKNNLYLQMNSLRAEDTAVYYCSSPIYDAYSFAYWGQGTLVTVSS VL: EIVMTQSPATLSVSPGERATLSCRASQTISNNLHWYQQKPGQAPRLLIYYASQSISGIPARFSGSGSGTEFTLTISSLQSEDFAVYYCQQSYSWPLTFGGGTKLEIKR ?
Outgoing: 0.000317
